Would you kindly list Ki for each of these compounds?
- Study System: Androgen receptor (Homo sapiens)
- Sequence (P10275 whole entry): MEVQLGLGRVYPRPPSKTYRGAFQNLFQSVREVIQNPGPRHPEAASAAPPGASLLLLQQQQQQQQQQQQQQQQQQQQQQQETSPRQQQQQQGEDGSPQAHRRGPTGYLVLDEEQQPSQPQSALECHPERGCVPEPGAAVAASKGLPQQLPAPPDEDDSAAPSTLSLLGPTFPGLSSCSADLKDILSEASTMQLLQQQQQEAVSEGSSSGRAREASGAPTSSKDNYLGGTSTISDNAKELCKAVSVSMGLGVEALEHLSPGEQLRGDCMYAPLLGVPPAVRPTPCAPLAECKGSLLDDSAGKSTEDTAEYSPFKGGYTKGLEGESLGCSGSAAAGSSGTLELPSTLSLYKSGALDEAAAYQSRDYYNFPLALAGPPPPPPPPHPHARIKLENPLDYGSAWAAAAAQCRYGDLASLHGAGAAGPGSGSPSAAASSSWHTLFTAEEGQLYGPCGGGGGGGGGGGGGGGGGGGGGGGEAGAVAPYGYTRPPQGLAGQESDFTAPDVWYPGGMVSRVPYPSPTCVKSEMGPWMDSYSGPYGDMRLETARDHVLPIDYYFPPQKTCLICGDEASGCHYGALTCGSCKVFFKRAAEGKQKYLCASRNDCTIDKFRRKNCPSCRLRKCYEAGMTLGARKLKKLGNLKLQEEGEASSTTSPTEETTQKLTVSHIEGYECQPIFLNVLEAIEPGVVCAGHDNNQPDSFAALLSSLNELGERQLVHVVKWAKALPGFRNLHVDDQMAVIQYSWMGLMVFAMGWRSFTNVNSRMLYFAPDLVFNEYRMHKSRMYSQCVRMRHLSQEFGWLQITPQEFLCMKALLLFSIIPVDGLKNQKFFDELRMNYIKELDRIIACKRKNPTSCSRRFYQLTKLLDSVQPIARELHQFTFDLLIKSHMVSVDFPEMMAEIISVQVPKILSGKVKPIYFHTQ
- Assay Summary: Binding affinity against Androgen receptor transfected into COS cells
Report the figure in nM without appending any unit label.

-- ask Record request: Ki value, item CCn1c(=O)cc(C(F)(F)F)c2cc3c(cc21)N[C@@H]1CCCC[C@H]31
-- reply 194

-- ask Record request: Ki value, item C[C@@H]1Cc2cc3c(C(F)(F)F)cc(=O)n(C)c3cc2N1
-- reply 9

-- ask Record request: Ki value, item C[C@H]1CC[C@H]2Nc3cc4c(cc3[C@H]2C1)c(C(F)(F)F)cc(=O)n4C
-- reply 94

-- ask Record request: Ki value, item C[C@]12CCCC[C@H]1Nc1cc3[nH]c(=O)cc(C(F)(F)F)c3cc12
-- reply 21

-- ask Record request: Ki value, item CCCN1c2cc3c(cc2[C@H]2CCCC[C@H]21)c(C(F)(F)F)cc(=O)n3C
-- reply 63

-- ask Record request: Ki value, item C[C@H]1N(C)c2cc3c(cc2C1(C)C)c(C(F)(F)F)cc(=O)n3C
-- reply 33

Sourced from ChEMBL document CHEMBL1130772
